Consider the following sequences and their measured self-splicing fitness (ln) readings.
Assay: self-splicing fitness, log relative to wild type (ln ratio); higher = more splicing; Tetrahymena group I intron in knt gene, E. coli kanamycin selection, DiMSum; sequences stand for … in CUCUCU…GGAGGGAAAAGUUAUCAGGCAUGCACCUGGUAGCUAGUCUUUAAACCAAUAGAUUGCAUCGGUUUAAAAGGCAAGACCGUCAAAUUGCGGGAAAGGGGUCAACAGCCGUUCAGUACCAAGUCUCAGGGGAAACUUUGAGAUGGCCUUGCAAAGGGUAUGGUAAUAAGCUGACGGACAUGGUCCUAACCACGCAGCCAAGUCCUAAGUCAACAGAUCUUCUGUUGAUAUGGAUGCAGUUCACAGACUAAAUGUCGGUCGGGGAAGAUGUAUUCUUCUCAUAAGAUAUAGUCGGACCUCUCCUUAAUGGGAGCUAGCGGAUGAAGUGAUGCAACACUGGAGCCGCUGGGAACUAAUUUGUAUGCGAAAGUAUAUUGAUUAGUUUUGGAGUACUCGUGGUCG;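 note: selection with 25 µg/mL kanamycin versus none on LB agar overnight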
Details: 30 °C

[
  {
    "Item sequence": "GCUGAGCAAUAUUACGCAUA",
    "self-splicing fitness (ln)": -3.37
  },
  {
    "Item sequence": "UUUAAGCAAUAUUACGAUUA",
    "self-splicing fitness (ln)": -0.637
  },
  {
    "Item sequence": "CUGAAGCAAUAUUACGUAUU",
    "self-splicing fitness (ln)": -3.86
  },
  {
    "Item sequence": "CGGUAGCAAUAUUACGCCAG",
    "self-splicing fitness (ln)": -0.874
  },
  {
    "Item sequence": "UCUGAGCAAUAUUACGAAAC",
    "self-splicing fitness (ln)": -2.45
  },
  {
    "Item sequence": "UUAGAGCAAUAUUACGACAA",
    "self-splicing fitness (ln)": 0.166
  },
  {
    "Item sequence": "ACGAAGCAAUAUUACGCCCU",
    "self-splicing fitness (ln)": -0.468
  },
  {
    "Item sequence": "CCUCAGCAAUAUUACGCCCU",
    "self-splicing fitness (ln)": -2.29
  },
  {
    "Item sequence": "CUGUAGCAAUAUUACGCUCU",
    "self-splicing fitness (ln)": -3.47
  },
  {
    "Item sequence": "CCUUAGCAAUAUUACGGAGU",
    "self-splicing fitness (ln)": -3.24
  },
  {
    "Item sequence": "UCAUAGCAAUAUUACGACAA",
    "self-splicing fitness (ln)": -2.43
  },
  {
    "Item sequence": "CGAAAGCAAUAUUACGAGGC",
    "self-splicing fitness (ln)": -3.72
  },
  {
    "Item sequence": "CGAUAGCAAUAUUACGCCUG",
    "self-splicing fitness (ln)": -0.681
  },
  {
    "Item sequence": "AUAAAGCAAUAUUACGAAUA",
    "self-splicing fitness (ln)": -0.578
  },
  {
    "Item sequence": "UUCGAGCAAUAUUACGGACU",
    "self-splicing fitness (ln)": -4.76
  },
  {
    "Item sequence": "CAUCAGCAAUAUUACGGACC",
    "self-splicing fitness (ln)": -3.04
  }
]

---

Consider the following sequences and their measured self-splicing fitness (ln) readings.
Experiment: self-splicing fitness, log relative to wild type (ln ratio); higher = more splicing; Tetrahymena group I intron in knt gene, E. coli kanamycin selection, DiMSum; sequences stand for … in CUCUCU…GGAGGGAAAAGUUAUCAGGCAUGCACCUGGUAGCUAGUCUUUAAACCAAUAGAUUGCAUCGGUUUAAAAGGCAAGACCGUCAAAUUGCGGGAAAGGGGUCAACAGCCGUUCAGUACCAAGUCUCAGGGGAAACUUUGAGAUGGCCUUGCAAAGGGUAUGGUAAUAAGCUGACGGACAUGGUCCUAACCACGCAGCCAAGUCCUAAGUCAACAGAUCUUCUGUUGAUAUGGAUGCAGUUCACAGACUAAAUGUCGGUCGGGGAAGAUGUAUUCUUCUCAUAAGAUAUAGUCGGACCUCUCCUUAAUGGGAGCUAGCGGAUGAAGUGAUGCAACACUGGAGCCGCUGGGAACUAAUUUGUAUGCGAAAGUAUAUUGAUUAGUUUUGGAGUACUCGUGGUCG
Conditions: 37 °C

[
  {
    "Item sequence": "UAGCAGCAAUAUUACGGGUU",
    "self-splicing fitness (ln)": -1.86
  },
  {
    "Item sequence": "CUACAGCAAUAUUACGAGUC",
    "self-splicing fitness (ln)": -3.18
  },
  {
    "Item sequence": "AGUCAGCAAUAUUACGACUG",
    "self-splicing fitness (ln)": -0.421
  },
  {
    "Item sequence": "CUGCAGCAAUAUUACGGAUG",
    "self-splicing fitness (ln)": -0.415
  },
  {
    "Item sequence": "GAAAAGCAAUAUUACGACAC",
    "self-splicing fitness (ln)": -0.346
  },
  {
    "Item sequence": "AUGCAGCAAUAUUACGGAUG",
    "self-splicing fitness (ln)": -1.08
  },
  {
    "Item sequence": "AAUCAGCAAUAUUACGUUGA",
    "self-splicing fitness (ln)": -0.22
  },
  {
    "Item sequence": "UAGAAGCAAUAUUACGCCAA",
    "self-splicing fitness (ln)": -1.39
  },
  {
    "Item sequence": "AGCUAGCAAUAUUACGAACG",
    "self-splicing fitness (ln)": -1.61
  },
  {
    "Item sequence": "ACUUAGCAAUAUUACGCCGG",
    "self-splicing fitness (ln)": -0.478
  },
  {
    "Item sequence": "GAGCAGCAAUAUUACGUGGU",
    "self-splicing fitness (ln)": -2.25
  },
  {
    "Item sequence": "GUUAAGCAAUAUUACGAGCG",
    "self-splicing fitness (ln)": -0.685
  },
  {
    "Item sequence": "UAUGAGCAAUAUUACGCCGG",
    "self-splicing fitness (ln)": -0.905
  },
  {
    "Item sequence": "CCCGAGCAAUAUUACGAGCG",
    "self-splicing fitness (ln)": -2.88
  },
  {
    "Item sequence": "CCCUAGCAAUAUUACGAGAU",
    "self-splicing fitness (ln)": -2.91
  },
  {
    "Item sequence": "CCCUAGCAAUAUUACGCGUU",
    "self-splicing fitness (ln)": -2.72
  },
  {
    "Item sequence": "GUCGAGCAAUAUUACGUACA",
    "self-splicing fitness (ln)": -0.719
  },
  {
    "Item sequence": "GACCAGCAAUAUUACGAGCU",
    "self-splicing fitness (ln)": -1.41
  },
  {
    "Item sequence": "UCUGAGCAAUAUUACGCUAU",
    "self-splicing fitness (ln)": -3.15
  },
  {
    "Item sequence": "ACUCAGCAAUAUUACGAAAU",
    "self-splicing fitness (ln)": 0.0403
  },
  {
    "Item sequence": "CUCAAGCAAUAUUACGACUA",
    "self-splicing fitness (ln)": -2.64
  },
  {
    "Item sequence": "UUCUAGCAAUAUUACGUGGA",
    "self-splicing fitness (ln)": -1.15
  },
  {
    "Item sequence": "UUUGAGCAAUAUUACGGAUA",
    "self-splicing fitness (ln)": -2.36
  },
  {
    "Item sequence": "CGAGAGCAAUAUUACGUCAG",
    "self-splicing fitness (ln)": -2.54
  },
  {
    "Item sequence": "CUCGAGCAAUAUUACGCGCG",
    "self-splicing fitness (ln)": -1.48
  },
  {
    "Item sequence": "ACCUAGCAAUAUUACGUCCG",
    "self-splicing fitness (ln)": -0.377
  },
  {
    "Item sequence": "UUUCAGCAAUAUUACGGCUU",
    "self-splicing fitness (ln)": -0.047
  },
  {
    "Item sequence": "UUCGAGCAAUAUUACGAAGU",
    "self-splicing fitness (ln)": -1.57
  },
  {
    "Item sequence": "AAGGAGCAAUAUUACGCACA",
    "self-splicing fitness (ln)": -1.89
  },
  {
    "Item sequence": "AUGCAGCAAUAUUACGCGUG",
    "self-splicing fitness (ln)": -2.59
  },
  {
    "Item sequence": "UAUUAGCAAUAUUACGCGAC",
    "self-splicing fitness (ln)": -1.41
  },
  {
    "Item sequence": "AGACAGCAAUAUUACGCUGU",
    "self-splicing fitness (ln)": -2.54
  },
  {
    "Item sequence": "CAAUAGCAAUAUUACGUCAU",
    "self-splicing fitness (ln)": -2.88
  },
  {
    "Item sequence": "UCUUAGCAAUAUUACGCAUA",
    "self-splicing fitness (ln)": -1.47
  },
  {
    "Item sequence": "CACUAGCAAUAUUACGUAAA",
    "self-splicing fitness (ln)": -2.61
  },
  {
    "Item sequence": "CAAUAGCAAUAUUACGACGA",
    "self-splicing fitness (ln)": -1.24
  },
  {
    "Item sequence": "AGAAAGCAAUAUUACGUAUU",
    "self-splicing fitness (ln)": -1.27
  },
  {
    "Item sequence": "ACAGAGCAAUAUUACGUUGA",
    "self-splicing fitness (ln)": -3.28
  },
  {
    "Item sequence": "AUGAAGCAAUAUUACGUUCC",
    "self-splicing fitness (ln)": -0.0585
  },
  {
    "Item sequence": "ACGAAGCAAUAUUACGGGUC",
    "self-splicing fitness (ln)": -2.34
  },
  {
    "Item sequence": "GCAAAGCAAUAUUACGCAGU",
    "self-splicing fitness (ln)": -2.42
  },
  {
    "Item sequence": "UGACAGCAAUAUUACGGCCG",
    "self-splicing fitness (ln)": 0.186
  },
  {
    "Item sequence": "UGGGAGCAAUAUUACGAUGU",
    "self-splicing fitness (ln)": -2.53
  },
  {
    "Item sequence": "UGAAAGCAAUAUUACGUUCC",
    "self-splicing fitness (ln)": -0.98
  },
  {
    "Item sequence": "CAGAAGCAAUAUUACGCUUC",
    "self-splicing fitness (ln)": -3.54
  },
  {
    "Item sequence": "UCAUAGCAAUAUUACGUUAA",
    "self-splicing fitness (ln)": -3.44
  },
  {
    "Item sequence": "CCCAAGCAAUAUUACGCCUG",
    "self-splicing fitness (ln)": -2.88
  },
  {
    "Item sequence": "AGGGAGCAAUAUUACGUCAU",
    "self-splicing fitness (ln)": -2.74
  },
  {
    "Item sequence": "GCGUAGCAAUAUUACGGCCG",
    "self-splicing fitness (ln)": 0.509
  },
  {
    "Item sequence": "CCUCAGCAAUAUUACGACUU",
    "self-splicing fitness (ln)": -2.43
  },
  {
    "Item sequence": "GAGUAGCAAUAUUACGCCUU",
    "self-splicing fitness (ln)": -0.976
  },
  {
    "Item sequence": "UAAAAGCAAUAUUACGAUGC",
    "self-splicing fitness (ln)": -2.3
  },
  {
    "Item sequence": "AUGAAGCAAUAUUACGCCAU",
    "self-splicing fitness (ln)": -0.85
  },
  {
    "Item sequence": "AUACAGCAAUAUUACGGGCA",
    "self-splicing fitness (ln)": -0.765
  },
  {
    "Item sequence": "CACAAGCAAUAUUACGUAGA",
    "self-splicing fitness (ln)": -1.73
  },
  {
    "Item sequence": "CGCAAGCAAUAUUACGCUUG",
    "self-splicing fitness (ln)": -1.87
  },
  {
    "Item sequence": "GUAUAGCAAUAUUACGGUAA",
    "self-splicing fitness (ln)": -1.24
  },
  {
    "Item sequence": "UGUGAGCAAUAUUACGCGAA",
    "self-splicing fitness (ln)": -2.54
  },
  {
    "Item sequence": "UCUCAGCAAUAUUACGAUUC",
    "self-splicing fitness (ln)": -1.94
  },
  {
    "Item sequence": "GGCUAGCAAUAUUACGGCCG",
    "self-splicing fitness (ln)": -0.656
  },
  {
    "Item sequence": "GUGCAGCAAUAUUACGACAG",
    "self-splicing fitness (ln)": -1.71
  },
  {
    "Item sequence": "UAUGAGCAAUAUUACGAACG",
    "self-splicing fitness (ln)": -1.13
  },
  {
    "Item sequence": "UUAUAGCAAUAUUACGAAUC",
    "self-splicing fitness (ln)": -1.85
  },
  {
    "Item sequence": "AGGAAGCAAUAUUACGGUCG",
    "self-splicing fitness (ln)": 0.213
  },
  {
    "Item sequence": "AAGUAGCAAUAUUACGUUCA",
    "self-splicing fitness (ln)": 0.409
  },
  {
    "Item sequence": "AAAGAGCAAUAUUACGGCUU",
    "self-splicing fitness (ln)": -0.397
  },
  {
    "Item sequence": "UCACAGCAAUAUUACGGUCG",
    "self-splicing fitness (ln)": 0.119
  }
]
